- METHOD: yeast display, Sf9 membrane polyspecificity reagent, FACS + sequencing; frameworks hold sequencing errors
MEASURED_QUANTITY: polyreactivity (PSR sort gate)

SEQ | MEASURED_QUANTITY | TEST_RESULT
QVQLVESGGGLVQAGGSLRLSCAASGRIFYTNAMGWYRQAPGKERELVATISSSGGRTYLRNSVKGRFTLSRDNAKNTVYLQMNSLKPEDTAVDYCAAGWSYPVRNIYYYWGQGTQVTVSS | polyreactivity (PSR sort gate) | high polyreactivity
QVQLVESGGGLVQAGGSLRLSCAASGSTFSYNAMGWYRQAPGKERELVAAISRGGITNYADSVKGRFTISRDNAKNTVYLQMNSLKPEDTAVYYCNAGYLGGPSYEYWGQGTLVTVSS | polyreactivity (PSR sort gate) | low polyreactivity
QVQLVESGGGLVQAGGSLRLSCAASGRIFRAYAMGWYRQAPGKERELVAAITSGVSTNYADSVKGRFTISRDNAKNTVYLQMNSLKAEDTAVYYCAADIYVIYEYWGQGTQVTVSS | polyreactivity (PSR sort gate) | low polyreactivity
QVQLVESGGGLDQAGGSLRLSCDASGGTFLSYAMGWYRQAHGKERELVARINSGSSTYYADSVKGRFTISRDNAKNTVYLQMNSLKPEDTAVYYCATRWVSRTHGYWGQGTQVTVSS | polyreactivity (PSR sort gate) | low polyreactivity
QVQLVESGGGLVQAGGSLSLSCAASGRTIAYYAMGWDRQAPGKEMEFVAAISSTGTSTYYADSVKGRFTISRDNAKNTVYLQMNSLKPEDTGVYYCNARVATYRLHSKFYYWGQRTQVTVSS | polyreactivity (PSR sort gate) | high polyreactivity
QVQLVESGGGLVQAGGSLRLSCAASGITFGYYAMGWYRQAPGKERELVATLTDGGGTKYADSVKGRFTISRDNAMNTVYLQMDSLKPEDTAVYYCAAGLRHVYATEYDYWGQGTQVTVSS | polyreactivity (PSR sort gate) | low polyreactivity
QVQLVESGGGLVQAGGSLRLSCAASGFTFFYNAMGWYSQAPGKESELVASITVSTSGTDYADSVKGRFTISRDNAKNTVYLQMNSLKPEDTAVYYCATDLVFVYSDLQDTAYYWGQGTQVTVSS | polyreactivity (PSR sort gate) | low polyreactivity
QVQLVESGGGLVQAGGSLRLSCAASGRTFNTNAMGWYRQAPGKERELVAAITRSGDSTYYADSVKGRFTISRDNAKNTVYLQMNSLKPEDTAVYYCAAYSRTLYPDRYYWGHGTQVTVSS | polyreactivity (PSR sort gate) | high polyreactivity
QVQLVESGGGLVQAGGSLRLSCAASGIIFSWYDMGWYRQAPGKERELVAAISSGDRTNYADSVKGRFTISRDNAKNTVYLQMNSLKPEDTAVYYCAADLFPIAGEYDYWGQGTQVTVSS | polyreactivity (PSR sort gate) | high polyreactivity
QVQLVESGGGLVQAGGSLRLSCAASGSIFASNALGWYRQAPGKERELVAAIDTSGGSTYYADSVKGRFTISRDNAKNTVYLQMNSLKPEDTAVYYCNTDWRDEYYPRYRASKFDYWGQGTQVTVSS | polyreactivity (PSR sort gate) | low polyreactivity
QVQLVESGGGLVQAGGSLRLSCAASGFIFYKYAMGWYRQAPGKERELVAAISRRGGNTYYADSVKGRFTISRDNAKNTVYLQMNSLKPEDTAVYYCIAVLYFPYEYWGQGTQVTVSS | polyreactivity (PSR sort gate) | high polyreactivity
QVQLVESGGGLVQAGGSLRLSCAASGFIYERNAMGWYRQAPGKERELVAAISGGGSTNYADSVKGRFTISRDNAKNTVYLQMNSLNPEDTAVYYCAADSWWYPFDYWGQGTQVTVSS | polyreactivity (PSR sort gate) | high polyreactivity
QVQLVESGGGLVQAGGSLRLSCAASGSIFTGNAMGSYRQAPGKERELVAAISSSGARTYYADSVKGRFTISRDNAKNTVNLQMNSLKPEDTAVYYCNADSYTLYGLYDYWGQGTKVTVSS | polyreactivity (PSR sort gate) | low polyreactivity
QVQLVESGGRLVQAGGSLRLSCAASGRTIRYNAMGWYRQAPGKERELVASISDGGSTNYADSVKGRFTISRDNAKNTVYLQMNSLKPEDTAVYYCALAGYRRYGYVYWGQGTQVTVSS | polyreactivity (PSR sort gate) | low polyreactivity
QVQLVESGGGLVQAGGSLRLSCAASGRTFITNAMGWSRPAPGKEREFVAAIRGGRGSTYYADSVKGRFTISRDNAKNTVYLQMNSVKPEDTAVYFCAARYWLFPRGYNYWGQGTQVTVSS | polyreactivity (PSR sort gate) | high polyreactivity
QVQLVESGGGLVQAGGSLRLSCAASGSTFTYYAMGWYRQAPGKERELVADISWDGGSTYYADSVKGRFTFSRDNAKNTVYLQMNSLKPEDTAVYYCATDLVYKYDYWGQGTQVTVSS | polyreactivity (PSR sort gate) | low polyreactivity
QVQLVESGGGLVQAGGSLRLSCAASGSTFGRYAMGWYRQAPGKEREFVAAISCSGGSTYYADSVKGRFTISRDNAKNTVYLQMNSLNPEDTAVYYWARYSWRGLAEFESWGQGTQVTVSS | polyreactivity (PSR sort gate) | low polyreactivity
QVQLVESGGGLVQAGGSLRLSCAASGSIFEWYAMGWYRQAPGKERELVADITYNGGSTYYADSVKGRFTISRDNAKNTVYLQMNSLKPEDTAVYYCAADYFVQVPDYYYASEYGYWGQATQVTVSS | polyreactivity (PSR sort gate) | low polyreactivity
QVQLVESGGGLVQAGGSLRLSCAASGIIFRRYAMGWYRQAPGKERELVAAITSGGSTYYADSVKGRFTISRDNAKNTVYLQLHSLKPEDTAVYYCNKGGYAIRYDYYWGQGTQVTVSS | polyreactivity (PSR sort gate) | high polyreactivity
QVQLVESGGGLVQAGGSLRLSCAASGRTLVRYAMGWYRQAPGKEREFVAGISYSGGSTYYADSVKGRFTISRDNAKNTVYLQMNSLKPEDTAVYYCAATTRGARKSGGNYWGQGTQVTVSS | polyreactivity (PSR sort gate) | high polyreactivity
QVQLVESGGGIVQAGGSLRLSCAASGIIFWNYTMGWYRQAPGKERELVAAISVSGGSTYYADSVKGRFTISRDNAKNTVYLQMNSLKPEDTAVYYCAAEWIYPSPHYEYDYWGQGTQVTVSS | polyreactivity (PSR sort gate) | high polyreactivity
